Where do the numbers come from? From the domain aggregation screens of Martell et al. (2025).

# experimentSummary: soluble fraction after stress (log2 fold change); higher = more stays soluble; pooled small domains, quantitative proteomics
# conditionSet: stress: 50 degC
Parameter: soluble fraction (log2). Scope: all listed entries.

Below: 3 sequences and their reported soluble fraction (log2).
• HMSGNPLDTYYSKWSAEIKKGSPNAVISKEGDKYYVSIPGENRMAIIYENPHLIRMVNATRNIHVE = -0.168
• HMRLREETRKVDKTGLIQVDGRHYRVPDEYSQKDVQILMDDNSIMVYRKGDFVIELDKETSVYMPH = 0.214
• HMHLTRYLHTMIRAANLDDTLDFFVEKLGLIEAYRYSNEAGRFTLVFLSAPDDLESAQSRQAPLVEITYN = -0.107

soluble fraction (log2) recorded for this sequence, "HMINVVDEVIKHLETNIISGFWAPGQKIDSEATLSKQLNVSRASIHTAIQQLIATGVLESFQGKGTFVRS" , is -0.624

soluble fraction (log2) recorded for this sequence, "HMNTLLGLSNSFQDNKDLENANSISRRFISYRPRSEAELRIRLLKVFSHEIVLESVAQMYREGLLNDQRF" , is -3.33

soluble fraction (log2) recorded for this sequence, "HMNVNTHKTLILNSTFQPLSLATPQRALALLFSKKINVLKESDIKLRSVGQSVAIPKVAVLTYFVKA" , is -0.291

soluble fraction (log2) recorded for this sequence, "HMITERVPVPDLTGMPLMEAIKTLNSSKLQYQVVGSVIEGDENRIIDQTPKPDIMVSEKSIVLLYLETYRG" , is -0.509

soluble fraction (log2) recorded for this sequence, "HMEGLDDKTKIILFAGDKKEQEYSLADLKSKLNITENLTESELIKLLEKQGYVLDVNANNEFMFKKD" , is -0.0985

* * *

Parameter: soluble fraction (log2). Scope: all listed entries.
# experimentSummary: soluble fraction after stress (log2 fold change); higher = more stays soluble; pooled small domains, quantitative proteomics
# conditionSet: stress: 50 degC

- HMQQGVEQLPVTEVGGRLMHYYEVQPKETLYSLSHKLGVGQEYIEQHNPSVRGGLRAFMTLYFPAA: -0.0212
- HMKMLEINDNDSVGLKNLKTQYNHNQKVIENFQLEINKVINDGELPDKYLLDGMEKYQKLNMQIMSTIEKQ: 0.00483
- HMDFYVILGVDRAASLSDVKRAYRRLARKHHPDINPGDPESDAFFMRVTEAYETLVDPDRRQEYDEHG: -1.03

soluble fraction (log2) recorded for this sequence, "HMELPADLATVLSVDDIRAIALAEVPGSTITGVELEREEGVLVYKVKFNDGSYKLYDANTGELV" , is 0.174

* * *

# experimentSummary: soluble fraction after stress (log2 fold change); higher = more stays soluble; pooled small domains, quantitative proteomics
# conditionSet: stress: 50 degC
Parameter: soluble fraction (log2). Scope: all listed entries.
Give the figure only, with no unit attached.

Below: 4 sequences and their reported soluble fraction (log2).
* HMRMYDVNEYSDEELHRILDLSSPTDSELEARILQMIQKYKYTNGGDNEKMAVFFENIYHHFFD | -1.5
* HMVEMIGLQMVGKSGIASTVLRPSGKVRIDGVVYDAVSEDGFIEKGQAVKVLRYETGQVYVEKL | -0.254
* HMDVADITGTRKAAILLLTMDEELSKELLKEFERHEIEAIGKEIANIKYIPENIVKQVHSEFLKNINKS | -0.212
* HMEDIKHVVANNIKKYRKEERLTLQQLSYLTGVSKTMLNQIETEKSSPSITILWRISSGLKIPLSKLISSP | -1.61

soluble fraction (log2) recorded for this sequence, "HMGNTTEVLVATQDVKANTKIKESMFTTERVDTASLPDNYLSADSAKDVVGYYTYIGFTKGSVISKSNIAT" , is 0.0925

soluble fraction (log2) recorded for this sequence, "HMRVSNADALIGRRGKANSDIRRGDYGWVAIDGDVWKSKLADDITEDIPMGAIVEVLSRDSIILTVKP" , is -0.324

soluble fraction (log2) recorded for this sequence, "HMAPAPDEAFAEFVRSSAPSLTRTAWLLTGDRGHAQDLVQNAYAKTLQAWGRLDAEGALAYTRRAVIT" , is 0.00536

soluble fraction (log2) recorded for this sequence, "HMDRRSTTLQDIYTRIDAEEISEALELIPKLGEIEFEQNRAEIAEAAGVRPAVLDKLRKQAAKQENNKK" , is -0.0355

* * *

# experimentSummary: soluble fraction after stress (log2 fold change); higher = more stays soluble; pooled small domains, quantitative proteomics
# conditionSet: stress: 50 degC
Output schema: class label derived from soluble fraction (log2). Mapping: category 1 = under -0.2, category 2 = from -0.2 up to 0.04, category 3 = 0.04 and over

* HMYVVLYPGMARDEAVQVMNELQSRGIDYYEKNGNIYVPKTDENSLRMELANLGYPKTTNNYD | category 3
* HMPSEQGANKARDIIFRHHMKVDVWVGSWENARNYAEQAIKQGVKVIISRGGTAALLRHSLDTAIIKVR | category 2

Prompt: Assign a bin to "HMSEEKLVFSIPDDIETMRIDKAIALETHLSRAQIAELFKENKILLNSKNSKRSEKVKPGDKISLEFIPKI"
Completion: category 2

Prompt: Assign a bin to "HMKVTQDIIFKRNGEEIKSKVLEITPDLIIYIDYSRADNIAREINISEVNMIIYKNGTSEIFSRPEE"
Completion: category 3

Prompt: Assign a bin to "HMGSFTDKQIKQAFGVLNDPRFKQGNYDGAVAVINKIAPGLADHPSVANALKRANEATQDIAQQTQA"
Completion: category 3

Prompt: Assign a bin to "HMLIVLKPNVSQEEIDHIVDKIRSLSLEPHVSTGVQRTIITVIGDEDVIREQPLEALAGVESVKSILKP"
Completion: category 2

Prompt: Assign a bin to "HMNRTKQIYNELLFRLDQGVYPPESKFPSESQLADEFSVSKVTMNKIVSMLASSGRLSRGVRGAGTFVSSP"
Completion: category 1

Prompt: Assign a bin to "HMYDASELNKALEEAKKLDLNNYTEESSEALKNAISKAEEALLSKDKETINSALEELNKAMDSL"
Completion: category 3

Prompt: Assign a bin to "HMRQSIHTALQLLTPREEEVLNLLVSGKSNKQVAEHFSLSSKTIERHRSSVMRKLDASSFAQLVRIAALR"
Completion: category 1

Prompt: Assign a bin to "HMWKQISSEAELLPAVRSVIQANPGEAEKLRNGEMAPLEFLTGLVMKKTNGMAVPQIVKTLIKKELKI"
Completion: category 2

Prompt: Assign a bin to "HMYLGRKATLLSSISGEKMGNAEVLADGNLMSIYVKSLTGEPLSYGSTVLIIKHSEDQNFYLVQN"
Completion: category 1

Prompt: Assign a bin to "HMFVEEGSLKKITFDTYEFNITDNLKSLRVTYQGLLPNLFREGQGVVIEGILLEQNYIQANTVF"
Completion: category 3

Prompt: Assign a bin to "HMADQVLVMTRAVGQGDIVRNADIGLTSVAVDRAVATIPASQLDKIVGRHALVDLSPGQLLGSHSVGE"
Completion: category 2

Prompt: Assign a bin to "HMNNISKKIKELREQNNITQNKLANDLFIKQQTVAQWENGSRALKADSIISLAKYFNVSTDYLLGLTEN"
Completion: category 1

Prompt: Assign a bin to "HMGVEKHLRITGTSTVSWKDAIVQAVAEASKTIDYLSNVKIIEQRARIDGKKLVEYFVDLDLSFVID"
Completion: category 2

Prompt: Assign a bin to "HMSMEKNWVPSEDVIEILTRAGMNENFIRELIPEFIIYWSERKDVLISYDSKFIEHARLKWAQHNAE"
Completion: category 3

Prompt: Assign a bin to "HMKRANGTGSVFKLNGKRRNPWVARVTQGFDDKGRQKYVNLGYYKTKREAENELLSYNSNPYDAN"
Completion: category 3

Prompt: Assign a bin to "HMSENMSQDLAQWYRLQQALHPNLDAPELWATDLTSQQRTVRDQLIQQWAQEKRDSLWSEISGD"
Completion: category 3

Prompt: Assign a bin to "HMDAGIVVPDTYNKPLAEAVASLEGEGFRTEKKEGYSDTVAKGNVMSQNPEAGTNAERGSTVTIVISQGPQ"
Completion: category 3

Prompt: Assign a bin to "HMDWVAYGAELRRRRLLAGWTVAELSRRINLSGMTIHQIEKGRGRLRPSELTLAKLAAALGMPTP"
Completion: category 1

Prompt: Assign a bin to "HMGTDFRPVFQYVDELVRAGEFTNLKGMIYFTDGRGIFPEKKPDYDAAFVFLDDGYDPPDVPVWAIKLVL"
Completion: category 2

Prompt: Assign a bin to "HMENLIEELTAKNKEYIHSVTKQLILVGKSDEEVKEILNDILPQIIEGQKSGIIARKLLGAPTEFVSQYQP"
Completion: category 2

Prompt: Assign a bin to "HMDLPDFTSRERDILARVVQGDSNERIAASLGVSVSTVKTHIGNILRKTGQTNRVRLIVWATRHL"
Completion: category 1
